Tested on: BDF1 mice, P388 leukemia ip, median survival T/C
Experiment: NCI In Vivo Anticancer Drug Screen. Data for tumor model P388 Leukemia (intraperitoneal) in B6D2F1 (BDF1) mice
Conditions: endpoint: median survival time; dose: 100.0 mg/kg/injection; schedule: Q01DX009 (ip); vehicle: saline with Tween-80; higher = longer survival
Toxic doses and inconclusive results are not listed.
Assay readout: T/C

> print(dat)
                             compound                                    system            result
1  Nc1[nH]c(=S)[nH]c(=O)c1NC(=O)C1CC1  BDF1 mice, P388 leukemia ip, median survival T/C  100 % of control

Now let's try a different one.
Task: Reported T/C, compound COc1ccc(C2CC(c3ccccc3O)=NC(c3ccc(OC)cc3)N2)cc1 (stereo not given) : ____
Output: 92 % of control

---

Tested on: BDF1 mice, P388 leukemia ip, median survival T/C
Test: NCI In Vivo Anticancer Drug Screen. Data for tumor model P388 Leukemia (intraperitoneal) in B6D2F1 (BDF1) mice
Details: endpoint: median survival time; dose: 12.5 mg/kg/injection; schedule: Q01DX001 (ip); vehicle: saline with Tween-80; higher = longer survival
Toxic doses and inconclusive results are not listed.
Assay readout: T/C

Illustrative cases are given below, each with its answer.
> print(dat)
                                   compound                                    system            result
1  CCC(c1ccc(OC)cc1)C(NCC(=O)N/N=C/c1ccccc1[N+](=O)[O-])c1ccc(OC)cc1 (stereo not given)  BDF1 mice, P388 leukemia ip, median survival T/C   91 % of control
2               CC(=O)Nc1cc2c3c(c1)CCN3CCC2  BDF1 mice, P388 leukemia ip, median survival T/C   90 % of control
3  CC12CCC(Cl)CC1=CCC1C2CCC2(C)C1CCCN2CCCl (stereo not given)  BDF1 mice, P388 leukemia ip, median survival T/C  105 % of control
4  O=[N+]([O-])c1ccc(N/N=C(\COc2ccccc2)c2ccccc2)c([N+](=O)[O-])c1  BDF1 mice, P388 leukemia ip, median survival T/C  100 % of control

Now let's try a different one.
Task: Reported T/C, compound "Cn1c(=O)c2nc(-c3ccc(Cl)c(Cl)c3)c(-c3ccc(Cl)c(Cl)c3)nc2n(C)c1=O" : ____
Output: 99 % of control

---

Below, each entry is listed with its recorded T/C.
System: BDF1 mice, P388 leukemia ip, median survival T/C
Assay: NCI In Vivo Anticancer Drug Screen. Data for tumor model P388 Leukemia (intraperitoneal) in B6D2F1 (BDF1) mice
Conditions: endpoint: median survival time; dose: 200.0 mg/kg/injection; schedule: Q04DX003 (ip); vehicle: water; higher = longer survival
Toxic doses and inconclusive results are not listed.

Illustrative cases are given below, each with its answer.
> print(dat)
                     smiles.notation                                    system            result
1                 CC(=O)N1CCn2nccc21  BDF1 mice, P388 leukemia ip, median survival T/C   90 % of control
2  CC(=O)n1ncc2ccc([N+](=O)[O-])cc21  BDF1 mice, P388 leukemia ip, median survival T/C  106 % of control

Task: Reported T/C, compound "C=CCCC(=O)OC(C)(C)C" : ____
Output: 98 % of control

Task: Reported T/C, compound "O=C(/C=C\c1ccnc2ccccc12)c1ccc([N+](=O)[O-])cc1" : ____
Output: 100 % of control

Task: Reported T/C, compound "Nc1nccnc1C(=O)O" : ____
Output: 101 % of control

Task: Reported T/C, compound "O=c1[nH]c(=O)c2nccnc2[nH]1" : ____
Output: 95 % of control

Task: Reported T/C, compound "Cc1cn(C)c2nccnc12" : ____
Output: 98 % of control

---

Test system: BDF1 mice, P388 leukemia ip, median survival T/C
Experiment: NCI In Vivo Anticancer Drug Screen. Data for tumor model P388 Leukemia (intraperitoneal) in B6D2F1 (BDF1) mice
Conditions: endpoint: median survival time; dose: 200.0 mg/kg/injection; schedule: Q04DX003 (ip); vehicle: Klucel (hydroxypropylcellulose) (HPC)
Inconclusive results and toxic doses are left out. How the source made its calls: active means survival T/C of 150% or more; inactive means T/C below 125% in these data.
Use one of these outcomes when replying: 1.0 for active, 0.0 for inactive

Observe how each entry below is paired with its result.
> print(dat)
                                   compound                                    system  label
1  COc1cc2c(cc1NC(=O)N(CCCl)N=O)-c1ccccc1C2  BDF1 mice, P388 leukemia ip, median survival T/C    1.0
2                    C=CCNC(=S)Nc1ccc(C)cc1  BDF1 mice, P388 leukemia ip, median survival T/C    0.0
3  O=C(c1ccccc1)C(Br)c1ccc([N+](=O)[O-])cc1 (stereo not drawn)  BDF1 mice, P388 leukemia ip, median survival T/C    0.0

Task: Please indicate how the test categorized "O=C(O)c1ccc(CCCC2CCCC2)cc1" .
Output: 0.0

Task: Please indicate how the test categorized CC(C)=CCNc1ncnc2c1ncn2C1OC(CO)C(O)C1O (stereo not drawn) .
Output: 0.0

Task: Please indicate how the test categorized "C[C@]12CC[C@H](O)C[C@@H]1CC[C@@H]1[C@@H]2C(=O)C[C@@]2(C)[C@H]1CC[C@]2(O)C(=O)CBr" .
Output: 0.0

Task: Please indicate how the test categorized O=S1(=O)CC(O)C(Cl)C1 (stereo not drawn) .
Output: 0.0

Task: Please indicate how the test categorized Cc1ccc(C(Br)C2=CC(C)(C)c3ccccc3C2=O)cc1 (stereo not drawn) .
Output: 0.0

Task: Please indicate how the test categorized "NC(=O)Nc1nc(-c2ccccc2)no1" .
Output: 0.0

Task: Please indicate how the test categorized "COC(=O)c1cc(=O)n(-c2cccc(F)c2)c(SC)n1" .
Output: 0.0

Task: Please indicate how the test categorized "Cc1cc(C)n(CO)n1" .
Output: 0.0

Task: Please indicate how the test categorized "Clc1cc(Cl)c(I)c(Cl)c1" .
Output: 0.0

Task: Please indicate how the test categorized CCOC(=O)N1Cc2cc3ccccc3nc2C1CC(=O)O (stereo not drawn) .
Output: 0.0

Task: Please indicate how the test categorized "O=C(/C=C\c1ccc(O)cc1)c1ccccc1" .
Output: 0.0

Task: Please indicate how the test categorized "CCCCCCCCCCCCCCCCCC(N)=O" .
Output: 0.0

Task: Please indicate how the test categorized "c1ccc(CNCCOB(OCCNCc2ccccc2)OCCNCc2ccccc2)cc1" .
Output: 0.0

Task: Please indicate how the test categorized CC1(O)c2cccc3c2C2(O)c4c1cccc4C(C)(O)c1cccc(c12)C3(C)O (stereo not drawn) .
Output: 0.0

Task: Please indicate how the test categorized "CCOC(=O)CC(=Nc1ccccc1OC)C(=O)OCC" .
Output: 0.0

Task: Please indicate how the test categorized "CCN(CC)C(=O)c1ccc(C(Cl)(Cl)Cl)cc1" .
Output: 0.0

Task: Please indicate how the test categorized "COc1cc2c3c(c1)C(=O)CCN3CCC2" .
Output: 0.0

---

Below, each entry is listed with its recorded T/C.
System: BDF1 mice, P388 leukemia ip, median survival T/C
Experiment: NCI In Vivo Anticancer Drug Screen. Data for tumor model P388 Leukemia (intraperitoneal) in B6D2F1 (BDF1) mice
Conditions: endpoint: median survival time; dose: 200.0 mg/kg/injection; schedule: Q04DX003 (ip); vehicle: saline sonified; higher = longer survival
Inconclusive results and toxic doses are left out.

Illustrative cases are given below, each with its answer.
> print(dat)
                                   compound  assay.readout            result
1             Cc1ccc2c(c1)Sc1ccc3ccccc3c1N2            T/C   90 % of control
2  CNC(CCc1ccccc1)C(=O)O (configuration not stated)            T/C   91 % of control
3  CCC12CCC(=O)NC1Cc1[nH]c3c(OC)cccc3c1C2 (configuration not stated)            T/C  100 % of control
4  CC(O)C(F)(F)C(F)(F)C(F)(F)C(C)O (configuration not stated)            T/C   94 % of control
5  Oc1ccccc1C=NC1CCCCC1.Oc1ccccc1C=NC1CCCCC1.[Ni+2]            T/C  100 % of control

Task: Reported T/C, compound "CCOC(=O)/C(O)=C(\C=N\C(N)=O)C(=O)OCC" : ____
Output: 110 % of control

Task: Reported T/C, compound "O=C(/C=C\c1ccc2c(c1)OCO2)/C=C/c1ccc2c(c1)OCO2" : ____
Output: 109 % of control
